molecular target: UniProtKB P00734; assay: Binding affinity was evaluated against human thrombin
QUANTITY KIND: Ki (nM)
# value in nM; strip the unit string

(Q) Find the recorded Ki belonging to CN[C@H](Cc1ccccc1)C(=O)N1CCCC1C(=O)NC[C@H]1CC[C@H](N)CC1 (stereo partly specified) and report it.
(A) 5

====

QUANTITY KIND: Ki (µM)
# value in µM; strip the unit string

(Q) For Serine protease 1 (Homo sapiens), provide Ki of Cc1ccc(S(=O)(=O)Nc2ccc(C)n(CC(=O)NC[C@H]3CC[C@H](N)CC3)c2=O)cc1 please.
(A) 2.1

(Q) For Serine protease 1 (Homo sapiens), provide Ki of Cc1ccc(NC(=O)CCc2ccccc2)c(=O)n1CC(=O)NCC1CCN(C(=N)N)CC1 please.
(A) 0.94

(Q) For Serine protease 1 (Homo sapiens), provide Ki of Cc1ccc(S(=O)(=O)Nc2ccc(C)n(CC(=O)NCC3CCN(C(=N)N)CC3)c2=O)cc1 please.
(A) 0.14

(Q) For Serine protease 1 (Homo sapiens), provide Ki of Cc1ccc(NS(=O)(=O)Cc2ccccc2)c(=O)n1CC(=O)NCC1CCN(C(=N)N)CC1 please.
(A) 0.57

Reference for the values: ChEMBL document CHEMBL1130452
